# GI50 listing for each entry below
# Test system: HCT-15
Enter your answer as a number in µM; do not include the unit.

Sample records with GI50:
Compound: Clc1cc(Br)c2c3c(c(Br)cc(Cl)c13)C(Br)=C2Br
System: HCT-15
Attribute Measured: GI50
Measured: 18.6
--
Compound: CC(C)OC(=O)c1cc(NC(=S)OC(C)C)ccc1Cl
System: HCT-15
Attribute Measured: GI50
Measured: 21.6
--
Compound: CN1CCN(c2ccc3[nH]c(-c4ccc5[nH]c(-c6ccc(O)cc6)nc5c4)nc3c2)CC1
System: HCT-15
Attribute Measured: GI50
Measured: 224

Moving on to another compound below.
So what GI50 did N#CC(NNC(=O)c1ccccc1O)c1ccccc1O (stereo not given) get with HCT-15?
3.85

* * *

# Test system: MDA-N
# Assay Explanation: NCI tumour cell line growth inhibition, 48 h
Activity calls are given as the source filed them. Rule as the data show it: active = GI50 up to about 1.1 µM and inactive = higher.
Attribute Measured: GI50

Molecule: CCN(CC)c1nc(=O)c(C(=O)C(C)(C)C)c(C(C)(C)C)o1
Attribute Measured: GI50
Measured: > 100 µM (inactive)

Molecule: CC(=O)N(O)[C@@H]1CC[C@H](n2cnc3c(N)ncnc32)C1
Attribute Measured: GI50
Measured: > 100 µM (inactive)

Molecule: c1ccc(-c2nnc(-c3ccccn3)c3c2C[C@@H]2C[C@@H]4Cc5c(-c6ccccn6)nnc(-c6ccccn6)c5[C@@H]4[C@H]32)nc1
Attribute Measured: GI50
Measured: 46.6 µM (inactive)

Molecule: CCOC(=O)C1C(c2ccc(OC)cc2)c2c(n[nH]c2O)CC1(C)O (centres undefined)
Attribute Measured: GI50
Measured: > 100 µM (inactive)

Molecule: CC(C)(C)[Si](C)(C)OCC1OC(n2cnc3c(N)ncnc32)C2OC(=S)OC12 (centres undefined)
Attribute Measured: GI50
Measured: 27.2 µM (inactive)

Molecule: N#CCCN(CCCN(C(=O)Nc1ccccc1)c1ccccc1)C(=O)Nc1ccccc1
Attribute Measured: GI50
Measured: > 100 µM (inactive)

Molecule: CC1=C(C(=O)NNC(=O)C(N)=O)CC(C(=O)NNC(=O)C(N)=O)=C(C)N1
Attribute Measured: GI50
Measured: > 100 µM (inactive)

Molecule: CCOC(=O)/C=C(\C(=O)OCC)n1ccc(=O)n(Cc2cn(CCCCOC(C)=O)nn2)c1=O
Attribute Measured: GI50
Measured: 19.5 µM (inactive)

Moving on to another molecule below.
Consider the molecule shown here: COc1ccc(N2C(=O)C3c4[nH]c5ccccc5c4C4CCC(C(C)(C)C)CC4C3C2=O)c(C)c1 (centres undefined) What is its recorded GI50?
> 100 µM (inactive)

* * *

# GI50 listing for each entry below
# Test system: RPMI-8226
# Assay Explanation: NCI tumour cell line growth inhibition, 48 h
The source made the active and inactive calls. Rule as the data show it: active = GI50 up to about 1.1 µM and inactive = higher.

Sample records with GI50:
Molecule: CN1Cc2cc(O)c(O)cc2C(O)C1 (centres undefined)
Measured: > 100 µM (inactive)
//
Molecule: COC(=O)c1ccccc1CC1Cc2cc3c(cc2C1=O)CCC3 (centres undefined)
Measured: 10.5 µM (inactive)
//
Molecule: Clc1cc(-c2ccccc2)nc(Nc2nc3ccccc3[nH]2)n1
Measured: > 100 µM (inactive)
//
Molecule: Cn1c(=O)sc2cc(C(=S)N3CCOCC3)ccc21
Measured: > 79.8 µM (inactive)
//
Molecule: NNC(=O)CCC(=O)Nc1ccc(Cl)cc1Cl
Measured: 80.5 µM (inactive)

Consider the molecule shown here: CC[C@@]1(O)C(=O)OCc2c1cc1n(c2=O)Cc2c-1nc1ccccc1c2/C=N\NC(=O)C(N)CS (some centres undefined) What is its recorded GI50?
1.32 µM (inactive)

Consider the molecule shown here: N#CCCN(c1ccc(/C=C2\N=C(Cc3ccccc3)OC2=O)cc1)S(=O)(=O)c1ccccc1 What is its recorded GI50?
> 100 µM (inactive)

Consider the molecule shown here: O=P1(O)c2ccccc2Nc2cc(C(F)(F)F)ccc21 What is its recorded GI50?
> 100 µM (inactive)

Consider the molecule shown here: CN(C)CCN1C(=O)c2ccccc2C1(O)c1ccc(Cl)cc1 (centres undefined) What is its recorded GI50?
> 100 µM (inactive)

* * *

# Test system: SN12C
# Assay Explanation: NCI tumour cell line growth inhibition, 48 h
Activity calls are given as the source filed them. Rule as the data show it: active = GI50 up to about 1.1 µM and inactive = higher.
Pick one and only one: 1 (active), 0 (inactive)

Molecule: COc1ccc(N2C(=O)/C(=C/c3ccc(N(CCC#N)CCC#N)cc3)N=C2c2ccccc2)c(OC)c1
Cat: 0
//
Molecule: CC(C)[Si](Oc1cc2c3c(ccc2c(O)c1[C@@H](C)CO[Si](C)(C)C(C)(C)C)C(C)(C)CCC3)(C(C)C)C(C)C
Cat: 0
//
Molecule: CC[C@@]1(O)C(=O)OCc2c1cc1n(c2=O)Cc2c-1nc1ccccc1c2/C=N\NC(=O)C(N)CS (stereo partly drawn)
Cat: 1
//
Molecule: CN(C)C1=NC2=S(SC(Nc3ccccc3)=N2)S1 (stereo not drawn)
Cat: 0
//
Molecule: CCCCCCCCCCCCCCCCCCNc1ccn(C2OC(COP(=O)(O)OCC3OC(n4cc(C)c(=O)[nH]c4=O)CC3O)C(O)C2O)c(=O)n1 (stereo not drawn)
Cat: 0
//
Molecule: C[C@@H](c1ccccc1)N1CO[C@@]2(C#Cc3ccc4c(c3)OCO4)CCC[C@@H]12
Cat: 0
//
Molecule: Cc1c(CNc2ccc(Cl)c(C(=O)NC(CC(=O)O)C(=O)O)c2)ccc2nc(N)nc(N)c12 (stereo not drawn)
Cat: 1

Hi team, can someone confirm the assay call for O=C1C=CC(=O)c2c(O)c(N(CCCl)CCCl)c(Cl)c(O)c21 ?
0

* * *

# System: SK-MEL-2
# Assay Explanation: NCI tumour cell line growth inhibition, 48 h
Active and inactive are the calls of the source. No stated cut-off is given here; in the data, active = GI50 up to about 1.1 µM and inactive = higher.
Pick one and only one: YES (active), NO (inactive)

Solved cases (5 shown):
Compound: O=C(O)CCc1nc2cc3ccccc3cc2[nH]c1=O
Cat: NO

Compound: Cc1ccc2c(c1C)CC1(Cc3c(ccc4c3CCC4)C1=O)C2=O (stereo unspecified)
Cat: NO

Compound: CC(C)=CC(=O)OC1C2C(C)C(=O)OC2C(O)C(C)C2C=CC(=O)C21C (stereo unspecified)
Cat: NO

Compound: O=C1CC(/C=C/c2ccco2)=C(O)C1=O
Cat: NO

Compound: Clc1ccc2c(Cl)nc(-c3ccccc3)nc2c1
Cat: NO

Hi team, can someone confirm the assay call for CN1CCN(c2ccc3[nH]c(-c4ccc5[nH]c(-c6ccc(O)cc6)nc5c4)nc3c2)CC1 ?
NO

Hi team, can someone confirm the assay call for COc1cccc2c1-c1ccccc1[C@H](Nc1ccccc1)[C@@]2(C)O ?
NO

Hi team, can someone confirm the assay call for C=C1C(=O)O[C@@H]2C[C@]3(C)[C@@H](C[C@H]12)[C@](C)(O)CC[C@@H]3O ?
NO

Hi team, can someone confirm the assay call for COC1=CC2(C=CC1=O)CCNC1=C2C(=O)c2nc[nH]c2C1=O (stereo unspecified) ?
NO

Hi team, can someone confirm the assay call for O=C(Cn1c(=O)oc2ccc(C(=O)c3cccc(Cl)c3)cc21)c1ccccc1 ?
NO

Hi team, can someone confirm the assay call for Cc1ccc(OCC2OC(C#N)C(Oc3ccc(C)cc3)C2Oc2ccc(C)cc2)cc1 (stereo unspecified) ?
NO

Hi team, can someone confirm the assay call for O=C1CCCC(O)=C1SC1=C(O)CCCC1=O ?
NO

Hi team, can someone confirm the assay call for O=C(Nc1ccccc1)C(=O)C(C(=O)c1ccccc1F)C1OC(=O)c2ccccc21 (stereo unspecified) ?
NO

Hi team, can someone confirm the assay call for CN(CCCNCc1ccccn1)Cc1ccccc1O ?
NO

* * *

# System: SK-MEL-28
# Assay Explanation: NCI tumour cell line growth inhibition, 48 h
The source made the active and inactive calls. Cut-off read from the data, not from the text of the source: active = GI50 up to about 1.1 µM and inactive = higher.
# GI50 listing for each entry below

Compound: COC(=O)C(Cc1ccccc1)NP(=O)(O)OCC1OC(n2cc(F)c(=O)[nH]c2=O)CC1O (stereo unspecified)
System: SK-MEL-28
Attribute Measured: GI50
Measured: > 67 µM (inactive)

Consider the compound shown here: CC(C)CCCCCCCCCCCCC(=O)NCC(=O)NC1C(C)OC(Nc2ncnc3c2ncn3C)C(O)C1O (stereo unspecified) What is its recorded GI50?
> 100 µM (inactive)

Consider the compound shown here: CC(C)(C)NC(=O)[C@H]1CC[C@H]2[C@@H]3CC=C4NC(=O)CC[C@]4(C)[C@H]3CC[C@]12C What is its recorded GI50?
> 100 µM (inactive)

* * *

# Tested on: NCI-H226
# Assay Explanation: NCI tumour cell line growth inhibition, 48 h
Active and inactive are the calls of the source. Cut-off read from the data, not from the text of the source: active = GI50 up to about 1.1 µM and inactive = higher.
Attribute Measured: GI50

Compound: CC1CCC2c3c([nH]c4ccccc34)C3C(=O)N(c4ccccc4)C(=O)C3C2C1 (centres undefined)
GI50: 32.1 µM (inactive)
//
Compound: Cc1ccc(/N=N/C(=N\c2ccc(Cl)cc2)c2ccc(N(CCC#N)CCC#N)cc2)cc1
GI50: > 100 µM (inactive)

Consider the compound shown here: O=c1[nH]n(Cc2ccccn2)c2ccc([N+](=O)[O-])cc12 What is its recorded GI50?
> 100 µM (inactive)

Consider the compound shown here: Nc1cc(Cl)cc2cc(Cl)cnc12 What is its recorded GI50?
> 100 µM (inactive)

Consider the compound shown here: CC(C)[Si](Oc1cc2c3c(ccc2c(O)c1[C@@H](C)CO[Si](C)(C)C(C)(C)C)C(C)(C)CCC3)(C(C)C)C(C)C What is its recorded GI50?
> 100 µM (inactive)

Consider the compound shown here: COC(=O)c1csc([C@@H](OC(=O)[C@H](C)[C@H](CCCC(C)(Cl)Cl)OC(=O)c2csc([C@H](O)CO)n2)C(C)C)n1 What is its recorded GI50?
19.2 µM (inactive)
